Data provenance: PubChem BioAssay (NCATS)

- Test system: CAOV3
- method.summary: Primary qHTS to identify gynecologic anti-cancer compounds using libraries of approved drugs and bioactive compounds (AID 1345084); further: nearly all actives have a fitted effect of over 55% in size
- condition.label: Gynecologic cancer cell panel viability, ATPlite luminescence, 48 h; series mostly up to 57.5 µM
Inconclusive results are not listed. Active and inactive are the calls of the source. The call rests on the fitted dose curve; in most records, active means well fitted cell-killing curve with a large enough effect; inconclusive means small, poorly fitted or top-dose-only effect, or effect the other way; inactive means flat fitted curve, though single readings scatter.
Labels: true (1) (active), false (0) (inactive)

molecule=N#Cc1cnc2c(Cl)cc(NCc3cn(CCN4CCCCCC4)nn3)cc2c1Nc1ccc(F)c(Cl)c1 cat="false (0)"
molecule=CN1CCN(c2ccc(-c3cccc(CN4CCOCC4)c3)cc2NC(=O)c2c[nH]c(=O)cc2C(F)(F)F)CC1 cat="false (0)"
molecule=Cc1cc(F)ccc1-c1nc(NCCN=C(N)NC#N)nc2c1ccc(=O)n2-c1c(F)cccc1F cat="false (0)"
molecule=O=C1COc2nccc(-c3ccccc3F)c2CN1Cc1cc(C(F)(F)F)cc(C(F)(F)F)c1 cat="false (0)"
molecule="CC(=O)OC1C(OC(=O)c2ccccc2)C2C(=C(C)CCC2(C)C)C23CCC(C)(C2)C(=O)CC13 (configuration not stated)" cat="false (0)"
molecule="CC(C)(Cc1ccccc1)NCC(O)c1ccc(O)c(NS(C)(=O)=O)c1 (configuration not stated)" cat="false (0)"
molecule="COc1cc(F)c(C(C)C)cc1-c1ccc(C(F)(F)F)cc1CN1C(=O)OC(c2cc(C(F)(F)F)cc(C(F)(F)F)c2)C1C (configuration not stated)" cat="false (0)"
molecule=NC(=O)c1ccccc1Nc1ccnc(Nc2cccc(O)c2)n1 cat="true (1)"
molecule=CC(C)(Cc1nc(-c2ccc(O)cn2)no1)C(=O)NC1=C(C(=O)O)CCCC1 cat="false (0)"
molecule=Cc1cc2c(cc1N1C(=O)c3cccc4c(CCCO)ccc(c34)C1=O)n(C)c(=O)n2C cat="false (0)"
molecule="CC12CCC(OC3OC(CO)C(O)C(O)C3OC3OC(CO)C(O)C(O)C3O)CC1CCC1C2CCC2(C)/C(=C3/COC(=O)C3)CCC12O (configuration not stated)" cat="false (0)"
molecule=CCCCc1ccc(NS(=O)(=O)c2ccc(F)cc2)cc1 cat="false (0)"
molecule="CC(=O)O[C@@H]1CC2C(/C=C(\\C)C(=O)[C@@]3(O)C[C@@H](C)[C@H](OC(=O)c4ccccc4)C3/C=C/1C)C2(C)C (some centres not stated)" cat="false (0)"
molecule=Cc1c(C2=CCN(C(=O)N(C)C(C)C)CC2)nnn1-c1cccnc1F cat="false (0)"
molecule=COc1ccc(CCO[C@@H]2O[C@H](CO[C@H]3OC[C@](O)(CO)[C@H]3O)[C@@H](OC(=O)/C=C/c3ccc(O)c(O)c3)[C@H](O[C@@H]3O[C@@H](C)[C@H](O)[C@@H](O)[C@H]3O)[C@H]2O)cc1OC cat="false (0)"
molecule="C/C=C/C=C/C=C/C(=O)O[C@@H]1C=C(CO)C(O)(C(=O)OC)[C@@]2(C)CCCC(C)(C)C12 (some centres not stated)" cat="false (0)"
molecule=Cc1cccc(CC(=O)N2CCc3c2ccc(-c2cn(C)c4ncnc(N)c24)c3F)n1 cat="false (0)"

---

- Test system: Tov112D
- method.summary: Primary qHTS to identify gynecologic anti-cancer compounds using libraries of approved drugs and bioactive compounds (AID 1345084); further: nearly all actives have a fitted effect of over 55% in size
- condition.label: Gynecologic cancer cell panel viability, ATPlite luminescence, 48 h; series mostly up to 57.5 µM
Results filed as inconclusive are left out. Activity calls are given as the source filed them. Calls come from the whole dose curve; as a rule, active = well fitted cell-killing curve with a large enough effect; inconclusive = small, poorly fitted or top-dose-only effect, or effect the other way; inactive = flat fitted curve, though single readings scatter.
Labels: active, inactive

compound="CC(=O)OC(C)(C)/C=C/C(=O)C(C)(O)C1C(O)CC2(C)C3CC=C(C(C)(C)C(=O)O)C(CC(=O)O)C3(C)C(=O)CC12C (configuration not stated)" cat=inactive
compound=Cc1c(C2=CCN(C(=O)N(C)C(C)C)CC2)nnn1-c1cccnc1F cat=inactive
compound="O=C(Nc1ccccc1C(=O)NC1CCCCNC1=O)c1cc2ccccc2s1 (configuration not stated)" cat=inactive
compound=O=C(NCCO)c1cccc(-c2cc(Nc3ccc(OC(F)(F)F)cc3)ncn2)c1 cat=inactive
compound=C=C1C(=O)O[C@@H]2C[C@H](C)[C@@H]3CC(=O)[C@H](O)[C@@]3(C)C[C@H]12 cat=inactive
compound="C[C@@H]1CC[C@]2(C(=O)O)CC[C@]3(C)C(=CCC4[C@@]5(C)CC[C@H](O)[C@](C)(C(=O)O)C5CC[C@]43C)C2[C@]1(C)O (some centres not stated)" cat=inactive
compound=Fc1ccc(N2CCCCC2)c(NC(=S)c2ccncc2)c1 cat=inactive
compound=C=CC(C)(C)c1[nH]c2ccccc2c1C[C@@H]1NC(=O)[C@H](C)NC1=O cat=inactive
compound="CC(C)C(C)C(O)C1CC23CC(=O)C4(O)C(=C2CCC3C1C)C=CC1(O)CC(O)CCC14C (configuration not stated)" cat=inactive
compound=Cc1cc(C)c(S(=O)(=O)n2cc(C)cc2C)c(C)c1 cat=inactive
compound="CNCCCC1(c2ccccc2)OC(C)(C)c2ccccc21 (configuration not stated)" cat=inactive
compound="C=C1CCCC2(C)CCC(C(C)(C)OC3OC(C)C(O)C(O)C3OC(=O)/C(C)=C\\C)CC12 (configuration not stated)" cat=inactive
compound=CC(C)(C)C1CCN(C(=O)n2ncc(C(O)(c3ccccc3)c3ccccc3)n2)CC1 cat=inactive
compound=O=C(Nc1ccccc1Cl)c1cnc2ccc(C3CCNCC3)cn12 cat=inactive
compound=C=C1C(=O)O[C@@H]2C[C@@]3(C)CCCC(=C)[C@]3(O)C[C@H]12 cat=inactive
compound="CC1(C)CC[C@]2(C(=O)O)CC[C@]3(C)C(=CCC4[C@@]5(C)C[C@@H](O)[C@H](O)[C@@](C)(CO)C5CC[C@]43C)[C@@H]2[C@@H]1O (some centres not stated)" cat=inactive
compound=Nc1nc2c(nc(Br)n2[C@@H]2O[C@@H]3COP(=O)(O)O[C@H]3[C@H]2O)c(=O)[nH]1 cat=inactive
compound=CC(C)CCCCC(=O)N[C@@H](CO)C(=O)N[C@@H](CC(C)C)C(=O)[C@@]1(CO)CO1 cat=inactive
compound=CCCCCCCOc1cc2c(cc1/C(C)=C/c1ccc(C(=O)O)cc1)C(C)(C)CCS2(=O)=O cat=inactive
compound=O=S(=O)(NCc1cccc2ccccc12)c1cc(Cl)c(Oc2cccc(N3CCNCC3)c2)s1 cat=inactive
compound=CC(=O)O[C@H]1[C@@]2(O)C[C@H](C)[C@H](OC(=O)c3ccccc3)[C@@H]2[C@@H](OC(=O)CO)[C@]2(OC(C)=O)C[C@H]3C(=O)C(C)(C)C[C@@H]3[C@@]1(C)[C@H]2OC(C)=O cat=inactive
compound=COc1ccc(NC(=O)c2ccc(-c3ccc(C(=N)N)cc3C)cc2)cc1N1CCN(C)CC1 cat=inactive
compound=CCc1cnc(N2CCC(c3nc(COc4ccc(-n5cnnn5)cc4)cs3)CC2)nc1 cat=inactive
compound=O=C(Nc1ccc(C(F)(F)F)cn1)N1CCN(c2ncccc2C(F)(F)F)CC1 cat=inactive
compound=Cn1cc(-c2ccc(S(=O)(=O)n3ccc(/C=C/C(=O)Nc4ccccc4N)c3)cc2)cn1 cat=active
compound=C=C1C(=O)O[C@@H]2/C=C(\C)CC/C=C(\C)CC[C@@H]12 cat=inactive
compound="CC1CCC(=O)CC(SCC(O)C(=O)O)CCC(=O)O1 (configuration not stated)" cat=inactive
compound=O=C(Nc1cc(C(F)(F)F)cc(C(F)(F)F)c1)c1cnc(Cl)nc1C(F)(F)F cat=inactive
compound=O=C(COc1ccc(C(=O)c2ccccc2)cc1)NC1CCN(Cc2ccccc2)CC1 cat=inactive
compound="Cc1ccc(N2CCN(CCC3NC(=O)c4ccccc43)CC2)cc1C (configuration not stated)" cat=inactive
compound=N[C@@H]1c2cccnc2[C@H](OC(=O)N2CCC(n3c(=O)[nH]c4ncccc43)CC2)CC[C@H]1c1cccc(F)c1F cat=inactive
compound=COCCN(C(=O)c1cc(OC)c(OC)c(OC)c1)c1nc(-c2ccccc2)cs1 cat=inactive
compound="CC(NC(=O)Cc1cc(F)cc(F)c1)C(=O)NC1C(=O)N(C)c2ccccc2-c2ccccc21 (configuration not stated)" cat=inactive
compound="CN(C)CC#CCCC(=O)C(O)(c1ccccc1)C1CCC1 (configuration not stated)" cat=inactive
compound="CC(C)(F)CC(NC(c1ccc(-c2ccc(S(C)(=O)=O)cc2)cc1)C(F)(F)F)C(=O)NC1(C#N)CC1 (configuration not stated)" cat=inactive
compound=Cc1cc(C)nc(SCC(=O)Nc2ncc(Cc3cccc4ccccc34)s2)n1 cat=inactive
compound=O=c1cc(NCCCN[C@@H]2CCOc3c(Br)cc(Br)cc32)[nH]c2ccsc12 cat=inactive

---

- Test system: Es-2
- method.summary: Primary qHTS to identify gynecologic anti-cancer compounds using libraries of approved drugs and bioactive compounds (AID 1345084); further: nearly all actives have a fitted effect of over 55% in size
- condition.label: Gynecologic cancer cell panel viability, ATPlite luminescence, 48 h; series mostly up to 57.5 µM
Records with an inconclusive call do not appear. Active and inactive are the calls of the source. The call rests on the fitted dose curve; in most records, active means well fitted cell-killing curve with a large enough effect; inconclusive means small, poorly fitted or top-dose-only effect, or effect the other way; inactive means flat fitted curve, though single readings scatter.
Labels: active, inactive

compound=O=C(Nc1ccn(Cc2ccc(O)cc2C(F)(F)F)n1)c1c(F)cccc1F cat=inactive
compound="COc1cc2c(cc1O)C1(Cc3ccc4c(c3C1O)OCO4)[N+](C)([O-])CC2 (stereo not given)" cat=inactive
compound=CC(C)OC(=O)N1CCC(Oc2ncnc3c2cnn3-c2ccc(S(C)(=O)=O)cc2F)CC1 cat=inactive
compound=CNC(=O)c1ccc2c(c1)CCO[C@H]2CCN1CCN(c2ccc(OC)cc2)CC1 cat=inactive
compound=O=C(NCCCCCCCCNC(=O)C(Cl)Cl)C(Cl)Cl cat=inactive
compound="CCC(C)/C=C(C)/C=C/C1=CC2=C(Cl)C(=O)C(C)(OC(C)=O)C(=O)C2(O)C(OC)O1 (stereo not given)" cat=inactive
compound="C=C1C(=O)O[C@@H]2C[C@]3(C)[C@@H](CCC(C)O)[C@@H]3C[C@H]12 (stereo not given in full)" cat=inactive
compound=C=C(C)C(=O)O[C@H]1/C(C=O)=C\CC/C(CO)=C/[C@H]2OC(=O)C(=C)[C@@H]2[C@@H]1OC cat=inactive
compound=CC(C)(CNC(=O)c1cccc(-c2noc(C(F)(F)F)n2)c1)c1coc(-c2ccccc2)n1 cat=inactive
compound=COc1ccc(CCN(C)CCCOc2nsc(-c3ccccc3)n2)cc1OC cat=inactive
compound=CC(C)(C)Sc1c(CC(C)(C)C(=O)O)n(Cc2ccc(Cl)cc2)c2ccc(OCc3ccc4ccccc4n3)cc12 cat=inactive
compound=COc1cc(N2CCC(O)CC2)ccc1Nc1nc(Nc2ccccc2S(=O)(=O)C(C)C)c2[nH]cnc2n1 cat=inactive
compound=Nc1nc(O)c(C2=C3C(=Nc4ccccc43)C(=O)NCC2)[nH]1 cat=inactive
compound="C=C1C(=O)OC2CC(C)C(CCC(C)=O)=CCC12 (stereo not given)" cat=inactive
compound=COc1ccc(S(=O)(=O)N2CCC[C@H]2C(=O)Nc2cc(C)cc(C)c2)cc1 cat=inactive
compound=Cn1c(SCC(=O)N2CCC[C@H]2C(=O)Nc2ccccc2-c2ccccc2)nc2ccccc21 cat=inactive
compound="CCCCNc1ncc(-c2ccc(CN3CCOCC3)cn2)c(NC2CCC(O)CC2)n1 (stereo not given)" cat=inactive
compound="COC(=O)CC(O)CC(O)/C=C/c1c(C)ccc2c1C(OC(C)=O)CC(C)C2 (stereo not given)" cat=inactive
compound=N#Cc1cccc(C(=O)Nc2cc(-c3ccccc3)nn2-c2ccccc2)c1 cat=inactive
compound=Cc1nnc(C[C@@H]2C=C(c3ccc(Cl)cc3)c3ccccc3-n3c(C)nnc32)o1 cat=active
